system: MOLM14; assay: cell viability relative to vehicle control; higher = less cytotoxic; settings: 10 µM; SRSF2 genotype: SRSF2 P95H/wt;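 note: after 48 h exposure read by CellTiter-Glo luminescence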
Mark rule met only for cell viability values smaller than 90%; exact matches and larger values are rule not met.

I wonder whether CCOC(=O)c1ccc(NC(=O)O[C@H]2[C@H](OC(=O)Nc3ccc4c(c3)OCO4)[C@@H](OC(=O)Nc3ccc4c(c3)OCO4)[C@@H](OC)O[C@@H]2CO)cc1 has cell viability below 90%. Can you tell?
rule not met

I wonder whether O=C(O)CCC(=O)Nc1ccc(Br)cn1 [Bikinin] has cell viability below 90%. Can you tell?
rule not met

I wonder whether COc1cc2c(NC3CCN(C(C)C)CC3)nc(C3CCCCC3)nc2cc1OCCCN1CCCC1 has cell viability below 90%. Can you tell?
rule met

I wonder whether O=C(/C=C/N1C[C@H]2C[C@@H]1CN2c1ccccn1)c1ccccc1O has cell viability below 90%. Can you tell?
rule not met

I wonder whether CCn1nc(C2CCN(C(=O)CCO)CC2)nc1-c1cnc(N)c(-c2nnc(C(C)(C)C)o2)n1 has cell viability below 90%. Can you tell?
rule met

I wonder whether CCCCCCNC(=O)n1cc(F)c(=O)[nH]c1=O [Carmofur] has cell viability below 90%. Can you tell?
rule met

I wonder whether C=C(C)[C@@H]1CC[C@]2(C(=O)O)CC[C@]3(C)[C@H](CC[C@@H]4[C@@]5(C)CC[C@H](O)C(C)(C)[C@@H]5CC[C@]43C)[C@@H]12 [Betulinic acid] has cell viability below 90%. Can you tell?
rule met

I wonder whether Cc1ccc(C(=O)N(CCCN)[C@@H](c2nc3cc(Cl)ccc3c(=O)n2Cc2ccccc2)C(C)C)cc1 has cell viability below 90%. Can you tell?
rule met

I wonder whether CS(=O)(=O)c1ccc(C(=O)Nc2ccc(Cl)c(-c3ccccn3)c2)c(Cl)c1 [Vismodegib (GDC-0449)] has cell viability below 90%. Can you tell?
rule not met

I wonder whether COc1ccc(Cl)c(Nc2nc3ccccc3nc2NS(=O)(=O)c2cccc(NC(=O)C(C)(C)N)c2)c1 [Pilaralisib (XL147)] has cell viability below 90%. Can you tell?
rule met

I wonder whether CC(C)Oc1ccc(-c2cnc3c(-c4ccnc5ccccc45)cnn3c2)cc1 has cell viability below 90%. Can you tell?
rule met

I wonder whether Cc1nc2ccc(NC(=O)Nc3ccnc4cccnc34)cc2o1 has cell viability below 90%. Can you tell?
rule not met

I wonder whether CCOc1ccccc1N=Nc1c(C)[nH]n(-c2nc(-c3ccccc3)cs2)c1=O has cell viability below 90%. Can you tell?
rule not met

I wonder whether CNCCN(C)Cc1c[nH]nc1-c1ccc(O[C@H]2C[C@H](OCCC3CCOCC3)C2)cc1 has cell viability below 90%. Can you tell?
rule met

I wonder whether C=CC(=O)Nc1cc(Nc2nccc(-n3cc(CN(C)C)c(-c4ccccc4)n3)n2)c(OC)cc1N1CCOCC1 has cell viability below 90%. Can you tell?
rule met

I wonder whether CC[N+](CC)(CC)CCOc1cccc(OCC[N+](CC)(CC)CC)c1OCC[N+](CC)(CC)CC [Gallamine triethiodide (Flaxedil)] has cell viability below 90%. Can you tell?
rule not met

I wonder whether CC1(C)CC[C@]2(C(=O)O)CC[C@]3(C)C(=CC[C@@H]4[C@@]5(C)CC[C@H](O)[C@@](C)(CO)[C@@H]5CC[C@]43C)[C@@H]2C1 [Hederagenin] has cell viability below 90%. Can you tell?
rule not met

I wonder whether O=[N+]([O-])c1cn2c(n1)OC[C@@H](OCc1ccc(OC(F)(F)F)cc1)C2 has cell viability below 90%. Can you tell?
rule not met

I wonder whether CC(C)(C)C(=O)N1N=CC[C@H]1c1ccccc1 has cell viability below 90%. Can you tell?
rule not met
